- Procedure Details: Solubility in PBS
- Assay type: physicochemical
- Condition Summary: Solubility (uM)
Measured Quantity: Solubility (µM)
Just the number please, in µM, no unit attached.

Prompt: Find the recorded Solubility belonging to CC(=O)N1CCC[C@]12CC=CCCCC1(CCCC=CCCCOC(=O)N3CC[C@@](C(=O)N[C@@H](Cc4ccccc4Cl)C(=O)N[C@@H](Cc4csc5ccccc45)C(=O)N[C@H](CO)[C@@H](C)O)(C3)NC(=O)[C@H](CC(C)C)NC(=O)[C@H](Cc3ccccc3)NC(=O)[C@H](C)NC(=O)[C@H](C)NC(=O)[C@H](CC(=O)O)NC(=O)[C@H](CC(=O)O)NC1=O)NC(=O)[C@H](CC1CCCCC1)NC(=O)[C@H](CC(=O)O)NC2=O (some centres unmarked) and report it.
Response: 20

Turning now to a further record.
Prompt: Dear colleague, I am looking for the recorded Solubility of the following molecule: CC(=O)N1CCC[C@]12CC=CCCCC1(CCCC=CCCCOC(=O)N3CC[C@@](C(=O)N[C@@H](Cc4ccsc4)C(=O)N[C@@H](Cc4csc5ccccc45)C(N)=O)(C3)NC(=O)[C@H](CC(N)=O)NC(=O)[C@H](Cc3ccccc3)NC(=O)[C@H](C)NC(=O)[C@H](C)NC(=O)[C@H](CCCNC(N)=O)NC(=O)[C@H](CC(=O)O)NC1=O)NC(=O)[C@H](CC(C)(C)C)NC(=O)[C@H](CC(=O)O)NC2=O (some centres unmarked)
Response: 20

###

- Target Entity: full-length beta-Catenin (Uniprot ID P35222) (Homo sapiens)
- Construct: 10 nM full-length beta-Catenin (Uniprot ID P35222)
- Procedure Details: Fluorescence polarization IC50 (beta-catenin / 5FAM-TCF4 10-53 competition)
- Format: binding
- Condition Summary: read-out: beta-Catenin FP IC50
Below is a list of entries, each paired with its recorded IC50 value.
// return numeric value only (unit: µM, not printed)

Prompt: Value wanted: IC50 (full-length beta-Catenin (Uniprot ID P35222) (Homo sapiens)) of entry CC(=O)N1CCC[C@]12CC=CCCCC1(CCCC=CCCCOC(=O)N3CC[C@@](C(=O)N[C@@H](Cc4ccsc4)C(=O)N[C@@H](Cc4csc5ccccc45)C(=O)N[C@@H](CCC(N)=O)C(N)=O)(C3)NC(=O)[C@H](CC(N)=O)NC(=O)[C@H](Cc3ccccc3)NC(=O)[C@H](C)NC(=O)[C@H](C)NC(=O)[C@H](CCC(N)=O)NC(=O)[C@H](CC(=O)O)NC1=O)NC(=O)[C@H](CC(C)(C)C)NC(=O)[C@H](CC(=O)O)NC2=O (some centres unmarked) [I-838]
Response: 0.012

***
Prompt: Please tell me: IC50 of CC(=O)N1CCC[C@]12CC=CCCCC1(CCCC=CCCCOC(=O)N3CC[C@@](C(=O)N[C@@H](Cc4ccsc4)C(=O)N[C@@H](Cc4csc5ccccc45)C(=O)N[C@@H](CCC(N)=O)C(=O)N[C@@H](CCCCNC(=O)CCc4cccc5ccccc45)C(N)=O)(C3)NC(=O)[C@H](CC(N)=O)NC(=O)[C@H](Cc3ccccc3)NC(=O)[C@H](C)NC(=O)[C@H](C)NC(=O)[C@H](CC(=O)O)NC(=O)[C@H](CC(=O)O)NC1=O)NC(=O)[C@H](CC(C)(C)C)NC(=O)[C@H](CC(=O)O)NC2=O (some centres unmarked) [I-903] , system full-length beta-Catenin (Uniprot ID P35222) (Homo sapiens)?
Response: 0.033

###

- Target Entity: full-length beta-Catenin (Uniprot ID P35222) (Homo sapiens, UniProt P35222)
- Construct: 10 nM full-length beta-Catenin (Uniprot ID P35222)
- Sequence (P35222 whole entry): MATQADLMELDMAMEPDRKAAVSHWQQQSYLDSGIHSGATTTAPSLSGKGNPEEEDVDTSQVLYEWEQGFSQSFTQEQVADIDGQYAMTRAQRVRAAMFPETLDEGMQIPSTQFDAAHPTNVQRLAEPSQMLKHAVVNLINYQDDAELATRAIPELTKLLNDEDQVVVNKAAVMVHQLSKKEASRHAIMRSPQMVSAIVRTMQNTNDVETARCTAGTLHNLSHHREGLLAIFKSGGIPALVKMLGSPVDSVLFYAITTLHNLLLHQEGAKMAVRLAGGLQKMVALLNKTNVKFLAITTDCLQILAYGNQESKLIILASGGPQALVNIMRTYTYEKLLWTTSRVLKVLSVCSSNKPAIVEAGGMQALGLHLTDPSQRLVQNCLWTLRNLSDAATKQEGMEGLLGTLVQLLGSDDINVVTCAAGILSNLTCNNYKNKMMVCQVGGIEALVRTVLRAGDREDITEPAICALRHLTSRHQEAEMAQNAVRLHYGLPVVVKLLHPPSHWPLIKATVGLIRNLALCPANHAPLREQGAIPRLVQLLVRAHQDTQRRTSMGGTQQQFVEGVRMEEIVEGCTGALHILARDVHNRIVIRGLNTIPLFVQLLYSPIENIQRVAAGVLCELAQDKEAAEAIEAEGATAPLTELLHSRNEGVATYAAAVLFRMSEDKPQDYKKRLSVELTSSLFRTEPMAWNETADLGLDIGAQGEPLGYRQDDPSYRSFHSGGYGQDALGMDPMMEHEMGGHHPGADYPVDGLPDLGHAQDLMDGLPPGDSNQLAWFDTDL
- Procedure Details: Fluorescence polarization IC50 (beta-catenin / 5FAM-TCF4 10-53 competition)
- Format: binding
- Condition Summary: fluorescence polarization, beta-catenin; read-out: FP EC50
The reader will find reported pIC50 values listed item by item below.
// pIC50 is dimensionless: -log10 of concentration (M)

See these solved cases before continuing.
Prompt: Param item = CC(=O)N1CCC[C@]12CC=CCCCC1(CCCC=CCCCOC(=O)N3CC[C@@](C(=O)N[C@@H](CC(=O)O)C(=O)N[C@@H](Cc4csc5ccccc45)C(=O)N[C@@H](CCC(N)=O)C(N)=O)(C3)NC(=O)[C@H](CC(N)=O)NC(=O)[C@H](Cc3ccccc3)NC(=O)[C@H](C)NC(=O)[C@H](C)NC(=O)[C@H](CN(CC(=O)O)CC(F)(F)F)NC(=O)[C@H](Cc3ccsc3)NC1=O)NC(=O)[C@H](CC(C)(C)C)NC(=O)[C@H](CC(=O)O)NC2=O (stereo partly shown) ; retrieve measured pIC50.
Response: 5.26

Prompt: GET /values?readout=pIC50&item= CC(=O)N1CCC[C@]12CC=CCCCC1(CCCC=CCCCCCC[C@@](C)(C(=O)N[C@@H](Cc3ccccc3)C(=O)N[C@@H](Cc3c[nH]c4ccccc34)C(=O)N[C@@H](CCC(N)=O)C(N)=O)NC(=O)[C@H](C(C)C)NC(=O)[C@H](Cc3cccc(C(F)(F)F)c3)NC(=O)[C@H](C)NC(=O)[C@H](C)NC(=O)[C@H](CC(=O)O)NC(=O)[C@H](CC(=O)O)NC1=O)NC(=O)[C@H](C)NC(=O)[C@H](CC(=O)O)NC2=O (stereo partly shown) [I-239]
Response: 5.80

Prompt: What measured pIC50 goes with CCN(CC(=O)O)C[C@@H]1NC(=O)[C@H](CC(=O)O)NC(=O)C2(CCCC=CCCCOC(=O)N3CC[C@@](C(=O)N[C@@H](Cc4ccsc4)C(=O)N[C@@H](Cc4csc5ccccc45)C(=O)N[C@@H](CO)C(N)=O)(C3)NC(=O)[C@H](CO)NC(=O)[C@H](Cc3ccccc3)NC(=O)[C@H](C)NC(=O)[C@H](C)NC1=O)CCCC=CC[C@]1(CCCN1C(C)=O)C(=O)N[C@@H](CC(=O)O)C(=O)N[C@@H](CC(C)(C)C)C(=O)N2 (stereo partly shown) [I-974] ?
Response: 5.75

Prompt: Please report the recorded pIC50 for CC(=O)N1CCC[C@]12CC=CCCCC1(CCCC=CCCCCCC[C@@](C)(C(=O)N[C@@H](Cc3ccccc3)C(=O)N[C@@H](Cc3csc4ccccc34)C(=O)N[C@@H](CCC(N)=O)C(N)=O)NC(=O)[C@H](C)NC(=O)[C@H](Cc3ccccc3C)NC(=O)[C@H](C)NC(=O)[C@H](C)NC(=O)[C@H](CC(=O)O)NC(=O)[C@H](CC(=O)O)NC1=O)NC(=O)[C@H](C)NC(=O)[C@H](CC(=O)O)NC2=O (stereo partly shown) [I-366] .
Response: 5.84

Prompt: Which pIC50 value is on record for CC(=O)N1CCC[C@]12CC=CCCCC1(CCCC=CCCCCCC[C@@](C)(C(=O)N[C@@H](Cc3ccccc3)C(=O)N[C@@H](Cc3c[nH]c4ccccc34)C(=O)N[C@@H](C)C(N)=O)NC(=O)[C@H](C)NC(=O)[C@H](Cc3ccccc3)NC(=O)[C@H](C)NC(=O)[C@H](C)NC(=O)[C@H](CCC(=O)O)NC(=O)[C@H](CC(=O)O)NC1=O)NC(=O)[C@H](C)NC(=O)[C@H](CC(=O)O)NC2=O (stereo partly shown) ?
Response: 5.48

***
Prompt: Can you look up the measured pIC50 of CC(=O)N1CCC[C@]12CC=CCCCC1(CCCC=CCCCCCC[C@@](C)(C(=O)N[C@@H](Cc3cccc(F)c3)C(=O)N[C@@H](Cc3csc4ccccc34)C(=O)N[C@@H](CCC(N)=O)C(N)=O)NC(=O)[C@H](C(C)C)NC(=O)[C@H](Cc3ccccc3)NC(=O)[C@H](C)NC(=O)[C@H](C)NC(=O)[C@H](CC(N)=O)NC(=O)[C@H](CC(=O)O)NC1=O)NC(=O)[C@H](C)NC(=O)[C@H](CC(=O)O)NC2=O (stereo partly shown) [I-382] for me?
Response: 5.69

Prompt: // query pIC50 value for entry CC(=O)N1CCC[C@]12CC=CCCCC1(CCCC=CCCCOC(=O)N3CC[C@@](C(=O)N[C@@H](Cc4ccsc4)C(=O)N[C@@H](Cc4csc5ccccc45)C(=O)N[C@@H](CCC(N)=O)C(N)=O)(C3)NC(=O)[C@H](CC(C)C)NC(=O)[C@H](Cc3ccccc3)NC(=O)C(C)(C)NC(=O)C(C)(C)NC(=O)[C@H](CC(=O)O)NC(=O)[C@H](CC(=O)O)NC1=O)NC(=O)[C@H](CC(C)(C)C)NC(=O)[C@H](CC(=O)O)NC2=O (stereo partly shown) [I-1179]
Response: 6.46

Prompt: If you can, please state the reported pIC50 value of CC(=O)N1CCC[C@]12CC=CCCCC1(CCCC=CCCCCOC(=O)N3CC[C@@](C(=O)N[C@@H](Cc4ccsc4)C(=O)N[C@@H](Cc4csc5ccccc45)C(=O)N[C@@H](CCC(N)=O)C(=O)N[C@H](C)C(N)=O)(C3)NC(=O)[C@H](CC(N)=O)NC(=O)[C@H](Cc3ccccc3)NC(=O)[C@H](C)NC(=O)[C@H](C)NC(=O)[C@H](CC(=O)O)NC(=O)[C@H](CC(=O)O)NC1=O)NC(=O)[C@H](CC(C)(C)C)NC(=O)[C@H](CC(=O)O)NC2=O (stereo partly shown) [I-831] .
Response: 7.96

Prompt: Recorded pIC50 of CC(=O)N1CCC[C@]12CC=CCCCC1(CCCC=CCCCOC(=O)N3CC[C@@](C(=O)N[C@@H](Cc4ccsc4)C(=O)N[C@@H](Cc4csc5ccccc45)C(=O)N[C@H](C(N)=O)[C@@H](C)O)(C3)NC(=O)[C@H](CC(N)=O)NC(=O)[C@H](Cc3ccccc3)NC(=O)[C@H](C)NC(=O)[C@H](C)NC(=O)[C@H](CN(CC(=O)O)CC(F)(F)F)NC(=O)[C@H](CC(=O)O)NC1=O)NC(=O)[C@H](CC(C)(C)C)NC(=O)[C@H](CC(=O)O)NC2=O (stereo partly shown) [I-942] , please.
Response: 5.89

Prompt: Tell me the measured pIC50 of CC(=O)N1CCC[C@]12CC=CCCCC1(CCCC=CCCCOC(=O)N3CC[C@@](C(=O)N[C@@H](Cc4ccccc4Cl)C(=O)N[C@@H](Cc4csc5ccccc45)C(=O)N[C@@H](CO)C(N)=O)(C3)NC(=O)[C@H](CC(C)C)NC(=O)[C@H](Cc3ccccc3)NC(=O)[C@H](C)NC(=O)[C@H](C)NC(=O)[C@H](CCC(=O)O)NC(=O)[C@H](CC(=O)O)NC1=O)NC(=O)[C@H](CC(C)(C)C)NC(=O)[C@H](CC(=O)O)NC2=O (stereo partly shown) [I-1066] , please.
Response: 6.10

Every entry's value here was drawn from patent US20240116985A1.
